Overview of recorded solubility kinetic for various compounds
settings: buffer; pH 7.4; 6.0 h; 150.0 µM
ASSAY METRIC: solubility kinetic

[
  {
    "COMPOUND": "COc1ccccc1Nc1cnc2ccc(-c3ccc(OC)c(OC)c3)nn12",
    "RECORDED MEASUREMENT": "< 1 µg/mL"
  },
  {
    "COMPOUND": "OCc1ccc(-c2ccc(-c3ccc(CO)s3)o2)s1",
    "RECORDED MEASUREMENT": "> 43 µg/mL"
  },
  {
    "COMPOUND": "CCn1c(-c2nonc2N)nc2cnc(Oc3cccc(NC(=O)c4ccc(OCCN5CCOCC5)cc4)c3)cc21",
    "RECORDED MEASUREMENT": "< 1 µg/mL"
  },
  {
    "COMPOUND": "O=C(N/N=C/c1ccc(O)c(O)c1)c1cc2ccccc2cc1O",
    "RECORDED MEASUREMENT": "18.2 µg/mL"
  },
  {
    "COMPOUND": "COc1cccc(CNc2ccc(S(=O)(=O)Nc3cnc4ccccc4c3)cc2)c1O",
    "RECORDED MEASUREMENT": "< 1 µg/mL"
  },
  {
    "COMPOUND": "COc1ccccc1S(=O)(=O)Nc1cnccc1C(=O)Nc1nc(-c2ccccc2)cs1",
    "RECORDED MEASUREMENT": "42.6 µg/mL"
  },
  {
    "COMPOUND": "O=C(Nc1nc(-c2ccccc2)cs1)c1ccncc1NS(=O)(=O)c1ccccc1F",
    "RECORDED MEASUREMENT": "38.8 µg/mL"
  },
  {
    "COMPOUND": "COC(=O)C1=C(C)NC(C)=C(C(=O)OCCCN2CCC(c3ccccc3)(c3ccccc3)CC2)C1c1cccc([N+](=O)[O-])c1.Cl (configuration not stated)",
    "RECORDED MEASUREMENT": "< 1 µg/mL"
  },
  {
    "COMPOUND": "Cc1ccc(S(=O)(=O)Nc2cnccc2C(=O)Nc2nc(-c3cccc(Cl)c3)cs2)cc1",
    "RECORDED MEASUREMENT": "< 1 µg/mL"
  },
  {
    "COMPOUND": "COc1cc(=O)n2c(c1C(=O)N(C)Cc1cscn1)CCN(C(=O)c1ccc(C)cc1C)CC2",
    "RECORDED MEASUREMENT": "> 71 µg/mL"
  },
  {
    "COMPOUND": "O=[S+]([O-])(Nc1ccc2ccccc2c1)c1ccc(NCc2ccc(Cl)cc2O)cc1",
    "RECORDED MEASUREMENT": "< 1 µg/mL"
  },
  {
    "COMPOUND": "COc1cc(C(=O)NC2CCCc3c2[nH]c2c(Cl)cccc32)cc(OC)c1OC (configuration not stated)",
    "RECORDED MEASUREMENT": "< 1 µg/mL"
  },
  {
    "COMPOUND": "CCc1cccc(-n2nnc(-c3nsc(NC(=O)c4cccc(OC)c4)n3)c2C)c1",
    "RECORDED MEASUREMENT": "< 1 µg/mL"
  },
  {
    "COMPOUND": "O=C(Nc1ncccc1O)c1ccc(S(=O)(=O)Nc2ccccc2)cc1",
    "RECORDED MEASUREMENT": "> 55 µg/mL"
  },
  {
    "COMPOUND": "N#Cc1cccc(Nc2ncc(-c3cccc4ccccc34)o2)c1",
    "RECORDED MEASUREMENT": "< 1 µg/mL"
  },
  {
    "COMPOUND": "O=C1CCCC2=C1C1(CCCC1)N=C(Nc1nc3ccccc3o1)N2",
    "RECORDED MEASUREMENT": "< 1 µg/mL"
  },
  {
    "COMPOUND": "COC(=O)c1ccccc1NC(=O)c1ccccc1OC(F)F",
    "RECORDED MEASUREMENT": "< 1 µg/mL"
  },
  {
    "COMPOUND": "CCc1cccc(C)c1Nc1c(-c2ccc(N(C)C)cc2)nc2ncccn12",
    "RECORDED MEASUREMENT": "1.88 µg/mL"
  },
  {
    "COMPOUND": "O=C(O)c1ccc(Nc2nc(-c3cc4ccccc4oc3=O)cs2)cc1O",
    "RECORDED MEASUREMENT": "11.7 µg/mL"
  },
  {
    "COMPOUND": "Nc1c(-c2ccccc2)cnc2c(-c3ccccc3)cnn12",
    "RECORDED MEASUREMENT": "< 1 µg/mL"
  },
  {
    "COMPOUND": "O=S(=O)(Nc1nccs1)c1ccc(NCc2ccccc2)cc1",
    "RECORDED MEASUREMENT": "31.9 µg/mL"
  },
  {
    "COMPOUND": "COc1cccc(CNc2ccc(S(=O)(=O)Nc3ccc(-c4ccccc4)cc3)cc2)c1O",
    "RECORDED MEASUREMENT": "< 1 µg/mL"
  },
  {
    "COMPOUND": "Cc1ccccc1-c1nc(CN2CCC(C(=O)NCCCN3CCOCC3)CC2)c(C)o1",
    "RECORDED MEASUREMENT": "> 65 µg/mL"
  },
  {
    "COMPOUND": "COC(=O)c1cccc(NC(=O)c2cnc(-c3ccc(F)cc3)nc2-c2ccncc2)c1",
    "RECORDED MEASUREMENT": "< 1 µg/mL"
  },
  {
    "COMPOUND": "CS(=O)(=O)c1ccccc1-c1csc(N2CCC(C(N)=O)CC2)n1",
    "RECORDED MEASUREMENT": "> 54 µg/mL"
  },
  {
    "COMPOUND": "CCOC(=O)C1CCN(C(=O)C(C)(C)NC(=O)Nc2ccc(-c3ccccc3)cc2)CC1",
    "RECORDED MEASUREMENT": "10.8 µg/mL"
  },
  {
    "COMPOUND": "O=C1CCCC2=C1C1(CCS(=O)(=O)C1)N=C(Nc1nc3ccccc3o1)N2 (configuration not stated)",
    "RECORDED MEASUREMENT": "1.02 µg/mL"
  },
  {
    "COMPOUND": "O=C(Nc1nc(-c2ccccc2)cs1)c1ccncc1NS(=O)(=O)c1ccc(F)cc1",
    "RECORDED MEASUREMENT": "45.8 µg/mL"
  },
  {
    "COMPOUND": "Cn1nnnc1SCCCNCc1cccc(OCc2ccccc2Cl)c1",
    "RECORDED MEASUREMENT": "> 60 µg/mL"
  },
  {
    "COMPOUND": "COc1ccc(S(=O)(=O)N(CC(=O)Nc2ccc(C)cc2)c2ccc(C)cc2)cc1OC",
    "RECORDED MEASUREMENT": "< 1 µg/mL"
  },
  {
    "COMPOUND": "O=C(Cc1ccc(Cl)c(Cl)c1)Nc1ccc(S(=O)(=O)Nc2ccccc2)cc1",
    "RECORDED MEASUREMENT": "< 1 µg/mL"
  },
  {
    "COMPOUND": "CNc1oc(-c2cccc3ccccc23)nc1C(=O)Nc1cccc(C#N)c1",
    "RECORDED MEASUREMENT": "< 1 µg/mL"
  }
]

Cited source for all entries: PubChem BioAssay AID1645848
